Provenance of the data: ChEMBL document CHEMBL1926635

IC50, Stromelysin-1 (Homo sapiens): measured values
One number for each entry, in µM.

Study these solved cases before continuing.
> print(dat)
                              smiles.record  experimental.endpoint  unit.tag  endpoint.result
1  O=C(O)CCCN1C(=O)S/C(=C\C=C\c2ccccc2)C1=O                   IC50        µM              110
2  COc1ccc(-c2ccc(/C=C3/SC(=S)N(CC(=O)O)C3=O)o2)cc1                   IC50        µM              850
3  COc1ccc(-c2cs/c(=N\c3ccccc3)n2/N=C/c2ccccc2)cc1OC                   IC50        µM              230

Give Stromelysin-1 (Homo sapiens) IC50 for O=C(O)COc1ccccc1/C=C1/NC(=S)NC1=O
77

====

So I've got a bunch of molecules here, and I need their pKa values.
# method: Dissociation constant, pKa of the compound
# Format: physicochemical
Answers are plain numbers.

Study these solved cases before continuing.
> print(dat)
                              smiles.record  experimental.endpoint  endpoint.result
1  COc1ccc(-c2ccc(/C=C3/SC(=S)N(CC(=O)O)C3=O)o2)cc1                    pKa             3.62
2  O=C(O)c1cccc(-n2cc(-c3cc4ccccc4oc3=O)[nH]c2=S)c1                    pKa             3.91
3  CCOc1ccc(-c2ccc(S(=O)(=O)N[C@@H](C(=O)O)C3CCN(C(=O)OC(C)C)CC3)s2)cc1                    pKa             2.55
4         O=C(O)COc1ccccc1/C=C1/NC(=S)NC1=O                    pKa             3.68

Please examine the following record next.
May I ask what pKa has been recorded for O=C(O)CCCN1C(=O)S/C(=C\C=C\c2ccccc2)C1=O ?
3.89

====

# test-target: UniProt P08253
# Sequence (P08253 whole entry): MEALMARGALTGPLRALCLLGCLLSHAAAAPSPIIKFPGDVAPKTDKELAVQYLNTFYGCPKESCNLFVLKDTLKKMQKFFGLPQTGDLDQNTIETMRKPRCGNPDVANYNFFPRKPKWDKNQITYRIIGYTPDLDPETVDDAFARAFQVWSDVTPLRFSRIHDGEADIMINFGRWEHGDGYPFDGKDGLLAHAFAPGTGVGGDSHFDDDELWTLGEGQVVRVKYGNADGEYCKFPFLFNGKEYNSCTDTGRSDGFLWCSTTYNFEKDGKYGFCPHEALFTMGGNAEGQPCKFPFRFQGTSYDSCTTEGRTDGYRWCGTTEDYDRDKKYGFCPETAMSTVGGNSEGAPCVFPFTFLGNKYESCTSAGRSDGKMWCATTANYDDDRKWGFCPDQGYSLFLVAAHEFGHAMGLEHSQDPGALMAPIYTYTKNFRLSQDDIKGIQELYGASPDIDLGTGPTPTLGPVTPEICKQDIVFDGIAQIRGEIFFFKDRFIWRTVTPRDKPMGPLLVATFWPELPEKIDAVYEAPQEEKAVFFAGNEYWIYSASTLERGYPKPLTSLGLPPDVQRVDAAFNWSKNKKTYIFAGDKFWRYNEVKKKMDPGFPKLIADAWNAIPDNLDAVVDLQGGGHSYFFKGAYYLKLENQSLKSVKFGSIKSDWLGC
experimental-endpoint: IC50 (µM)
Give bare numbers, in µM.

Study these solved cases before continuing.
> print(dat)
                              smiles.record  endpoint.result
1  COc1ccc(-c2ccc(/C=C3/SC(=S)N(CC(=O)O)C3=O)o2)cc1              350
2  COc1ccc(-c2cs/c(=N\c3ccccc3)n2/N=C/c2ccccc2)cc1OC              120

Please examine the following record next.
May I ask what IC50 has been recorded for O=C(O)CCCN1C(=O)S/C(=C\C=C\c2ccccc2)C1=O ?
2.7
